# test system: human EP4 receptor (Homo sapiens (Human), UniProt P35408)
# Sequence (P35408 whole entry): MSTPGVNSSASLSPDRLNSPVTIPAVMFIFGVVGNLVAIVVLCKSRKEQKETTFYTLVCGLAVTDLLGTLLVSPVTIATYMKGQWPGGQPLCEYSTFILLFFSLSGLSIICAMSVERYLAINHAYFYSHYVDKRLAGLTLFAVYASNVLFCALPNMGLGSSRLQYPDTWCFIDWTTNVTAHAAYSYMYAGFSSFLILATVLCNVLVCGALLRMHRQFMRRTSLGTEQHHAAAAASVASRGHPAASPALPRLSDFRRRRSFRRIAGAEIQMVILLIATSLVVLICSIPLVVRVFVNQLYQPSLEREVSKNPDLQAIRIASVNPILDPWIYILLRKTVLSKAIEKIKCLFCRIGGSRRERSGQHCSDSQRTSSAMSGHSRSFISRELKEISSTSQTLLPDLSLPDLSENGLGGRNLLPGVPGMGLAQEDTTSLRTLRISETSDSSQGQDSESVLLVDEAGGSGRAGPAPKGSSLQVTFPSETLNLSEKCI
# measurement description: EP4 antagonistic activity measurement experiment using prostanoid receptor subtype expressing cells
# test conditions: CHO cells expressing human EP4 receptor; inhibition of cAMP production by PGE2 10 nM; 30 minutes at room temperature
endpoint: IC50 (nM)

A = COCCNC(=O)c1ccc2c(C3CC3)cn(C(C)C(=O)Nc3cc(Cn4cc(C)cn4)ccc3CCCC(=O)O)c2c1 (single isomer, unassigned) [Example 9-5(2)]
B = COCCNC(=O)c1ccc2c(C3CC3)cn(C(C)C(=O)Nc3cc(C#N)ccc3CCCC(=O)O)c2c1 (single isomer, unassigned) [Example 11-25(2)]
C = CNC(=O)c1ccc2c(C)cn(C(C)C(=O)Nc3cc(-c4nnc(C)o4)ccc3CCCC(=O)O)c2c1 (single isomer, unassigned) [Example 15-1(2)]
Sort (3 molecules) by IC50: min first. List the labels, following the order given in the request. B, A, C
